- Procedure summary: cytotoxicity in IOSE-T80 ovarian epithelial cells, dose response, selectivity assay for PAX8 inhibitor project, cell-based, cherry-pick (AID 687032);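 note: cells exposed to compound for 96 h before reading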
- Condition info: CellTiterGlo ATP luminescence, 96 h; series mostly up to 35 µM
Measured potencies and affinities stand elsewhere. Results filed as inconclusive are left out. Active and inactive are the calls of the source.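 Rule for the calls: active = fitted half-maximal concentration for viability loss no higher than twice the top valid dose, in every repeat run; inconclusive = repeat runs disagree, flat partial loss, or poor curve fit; inactive = the rest.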
Property label: outcome

[[record]]
compound = "C[C@H]1CN([C@@H](C)CO)C(=O)c2c(c3ccccc3n2C)-c2ccccc2CO[C@H]1CN(C)S(=O)(=O)c1ccc([N+](=O)[O-])cc1"
result_value = "inactive"

[[record]]
compound = "c1ccc(COc2ccc(OCCN3CCCCC3)cc2)cc1"
result_value = "inactive"

[[record]]
compound = "COc1ccc2c(c1)C(C)=CC(C)(C)N2S(=O)(=O)c1ccc(Br)cc1"
result_value = "inactive"

[[record]]
compound = "C[C@@H]1CCCCO[C@@H](CN(C)C(=O)NC2CCCCC2)[C@H](C)CN([C@@H](C)CO)C(=O)c2cc(NC(=O)Nc3ccc(C(F)(F)F)cc3)ccc2O1"
result_value = "inactive"

[[record]]
compound = "COc1cccc(-c2ccc3c(c2)[C@H]2[C@H](CCN2S(=O)(=O)c2ccccc2OC)[C@@H](CO)N3C)c1"
result_value = "inactive"

[[record]]
compound = "C[C@H](CO)N1C[C@H](C)[C@@H](CN(C)Cc2ccc(Cl)c(Cl)c2)OCCCC[C@H](C)Oc2ccc(NC(=O)Nc3ccc(C(F)(F)F)cc3)cc2C1=O"
result_value = "inactive"

[[record]]
compound = "COC(=O)[C@@]12C[C@@H](CC(=O)N3CCN(C(=O)c4ccco4)CC3)C(=O)N(Cc3ccco3)C1=CCC(C)(C)C2"
result_value = "inactive"

[[record]]
compound = "O=C(Nc1ccc(C(F)(F)F)cc1)N1C[C@@H]2N[C@H](C1)C2c1ccc(-c2ccccc2)cc1 (some centres not stated)"
result_value = "inactive"

[[record]]
compound = "C[C@@H]1CN([C@@H](C)CO)C(=O)Cc2cc(NS(=O)(=O)c3ccc(Cl)cc3)ccc2O[C@@H]1CN(C)CC1CCCCC1"
result_value = "inactive"

[[record]]
compound = "Cn1nnnc1Sc1ncnc2scc(-c3cccc4c3sc3ccccc34)c12"
result_value = "inactive"


[in] Which outcome value is on record for Fc1ccc(CSc2ccc(-c3ccco3)nn2)cc1 ?
[out] inactive

[in] If you can, please state the reported outcome value of O=C1c2cccc3c(O)ccc(c23)C(=O)N1c1ccc(Cl)cc1 .
[out] inactive

[in] For COc1ccc(-c2ccc3c(c2)[C@H]2[C@H](CCN2S(=O)(=O)c2ccc(OC)cc2)[C@H](CO)N3C)cc1 , what is its reported outcome?
[out] inactive

[in] What value of measured outcome is listed for C[C@H]1CCCCO[C@H](CN(C)C(=O)Nc2cccc3ccccc23)[C@@H](C)CN([C@@H](C)CO)C(=O)c2cc(NS(=O)(=O)c3ccc(F)cc3)ccc2O1 ?
[out] inactive

[in] I have this compound here, O=[N+]([O-])c1ccc2nc(SCc3cn4ccccc4n3)[nH]c2c1 , and I need its recorded outcome.
[out] inactive

[in] Item under review: COc1ccc(C2CC(c3ccc(Br)cc3)=NN2C(=S)Nc2ccccc2)cc1 (configuration not stated) . Reported outcome?
[out] inactive

[in] What value of measured outcome is listed for COc1cccc(S(=O)(=O)N2CC[C@@H]3[C@@H](CO)Nc4ccc(-c5ccccc5OC)cc4[C@@H]32)c1 ?
[out] inactive
